Run Description: HTB85 osteosarcoma cell growth inhibition, synergistic combos for chromothripsis tumors, BGB or cisplatin IC20 combos (AID 1671453);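 also: cells exposed for 96 hours before readout; 0% = vehicle DMSO and 100% = high DMSO killing control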
Experimental Context: HTB85 osteosarcoma cells, drug combinations, at 0.5 µM, stronger effect = higher value
As shown below, each of these compounds has a reported inhibition value.
Express it in %; write the number only.

Use these answered entries as a reference point.
O=C(Nc1ccccc1)c1ccccc1O | 1.9
O=c1[nH]c(-c2ccc(C(F)(F)F)cc2)nc2c1CSCC2 | -23.5
CO[C@H]1/C=C/O[C@@]2(C)Oc3c(C)c(O)c4c(O)c(c(C=NN5CCN(C)CC5)c(O)c4c3C2=O)NC(=O)/C(C)=C\C=C\[C@H](C)[C@H](O)[C@@H](C)[C@@H](O)[C@@H](C)[C@H](OC(C)=O)[C@@H]1C | -9.22

Which inhibition reading was recorded for the compound NC(=O)c1ncn(C2OC(CO)C(O)C2O)n1 (stereo not given) ?
4.41

What about O=c1ncccn1[C@@H]1O[C@H](CO)[C@@H](O)[C@H]1O ?
-26.7

---

Run Description: differential killing of epithelial or mesenchymal cells, primary screen, imaging, PC-3E GFP, TEM4-18 mCherry, co-culture (AID 1345086);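 also: cells exposed to compound for 72 h before imaging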
Experimental Context: imaging cell counts, measured here: epithelial PC-3E GFP cell survival, at 1 µM
Quantity Kind: normalised cell number
In your answer, state the number alone without any accompanying words.

Use these answered entries as a reference point.
CC(=O)[C@@]12O[C@](C)(c3ccccc3)O[C@@H]1CC1C3CCC4=CC(=O)CC[C@]4(C)C3CC[C@@]12C (some centres undefined) | 1.05
COc1c(N2CC[C@@H](CN)C2)c(F)cc2c(=S)c(C(=O)O)cn(C3CC3)c12 | 1.08
OCC(O)C(O)C(O)C(O)C(O)CO (centres undefined) | 0.96
COc1cc([C@@H]2c3cc4c(cc3[C@H](O)C3COC(=O)[C@H]32)OCO4)cc(OC)c1OC (some centres undefined) | 0.16
COC(=O)[C@@H](C)Oc1ccc(O)cc1 | 0.93
CCCc1cc(OC)c2c(c1)OCO2 | 0.92

Which normalised cell number reading was recorded for the compound Cc1ccc([C@H](C)CC(=O)N2C(=S)O[C@H]3Cc4ccccc4[C@H]32)cc1 ?
1.05

What about C=C[C@@]1(C)CC(=O)[C@@]2(O)[C@](C)(O1)[C@@H](OC(C)=O)[C@@H](O)C1C(C)(C)CC[C@H](O)[C@@]12C (some centres undefined) ?
1.25

What about CC(CCC(=O)O)[C@H]1CCC2C3C[C@H](O)[C@@H]4C[C@H](O)CC[C@]4(C)C3CC[C@@]21C (some centres undefined) ?
1.24

---

Run Description: LFS_MB_2R medulloblastoma cell growth inhibition, synergistic combos for chromothripsis tumors, cisplatin combos (AID 1671457);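 also: cells exposed to compound for four days before readout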
Experimental Context: LFS_MB_2R medulloblastoma cells, measured here: combination with cisplatin, at 5 µM, stronger effect = higher value
Quantity Kind: inhibition (%)
Express it in %; write the number only.

O=c1cc(-c2cccc3c2Sc2ccccc2S3)oc(N2CCOCC2)c1 | -42.7

Which inhibition reading was recorded for the compound CO[C@H]1/C=C/O[C@@]2(C)Oc3c(C)c(O)c4c(O)c(c(C=NN5CCN(C)CC5)c(O)c4c3C2=O)NC(=O)/C(C)=C\C=C\[C@H](C)[C@H](O)[C@@H](C)[C@@H](O)[C@@H](C)[C@H](OC(C)=O)[C@@H]1C ?
19.4

What about O=C(Nc1ccccc1)c1ccccc1O ?
26.7

What about CCc1c2c(nc3ccc(O)cc13)-c1cc3c(c(=O)n1C2)COC(=O)[C@]3(O)CC ?
61.9

What about O=c1ncccn1[C@@H]1O[C@H](CO)[C@@H](O)[C@H]1O ?
-12.7

What about NC(=O)c1ncn(C2OC(CO)C(O)C2O)n1 (stereo unspecified) ?
3.14

---

Test system: R275C/beta1
Run Description: modulators of BK channel variants, profiling panel, selectivity assay, cell-based, U2OS BacMam, thallium flux, beta subunits (AID 1259406);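 also: initial slope of Thallos dye fluorescence rise after thallium is added; log ratio against the mean of 0.3% DMSO vehicle wells on the same plate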
Experimental Context: at 30 µM
Activity calls are given as the source filed them.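 How the source made its calls: active means thallium flux through the channel raised or lowered by more than 3 SD from vehicle-only wells, actives on both sides; inactive means the rest.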
As shown below, each of these molecules has a reported log fold change Tl+ flux value.

Use these answered entries as a reference point.
Cc1noc(C)c1C(=O)Sc1nccc(C(F)(F)F)n1 | 0.0433 (inactive)
CN1c2ccsc2C(=O)C(=NNc2cccc(C(F)(F)F)c2)S1(=O)=O | 0.0113 (inactive)
O=[N+]([O-])c1cnc(Sc2nccc(-c3cccnc3)n2)s1 | 0.026 (inactive)
O=C(c1ccc(-c2cccs2)s1)c1ccc(F)cc1F | 0.00849 (inactive)
Cc1c(C(=O)CSc2n[nH]c(=O)n2C(C)c2ccccc2)sc2ccc(Cl)cc12 (stereo unspecified) | 0.0417 (inactive)

Which log fold change Tl+ flux reading was recorded for the molecule Cn1c(C(F)(F)F)nnc1S(=O)(=O)Cc1ccc(-c2csnn2)cc1 ?
-0.0587 (inactive)

What about COCCCNC(=O)C(C#N)=CN(C)C ?
-0.0584 (inactive)

What about O=S1(=O)CC(N2CCOCC2)c2ccccc21 (stereo unspecified) ?
0.0226 (inactive)

What about Cc1cc(C(=O)N2CCN(c3ncccc3C#N)CC2)no1 ?
0.022 (inactive)

What about Cc1nn(C)c2ncc(C(N)=O)c(Oc3ccc(Cl)cc3)c12 ?
0.00427 (inactive)

What about CC(=CCC1=C(C)C(=O)c2ccccc2C1=O)CCCC(C)CCCC(C)CCCC(C)C (stereo unspecified) ?
0.0513 (inactive)

---

Run Description: HepG2 cytotoxicity, primary screen, cytotoxicity control for P. falciparum antimalarial project, cell-based, ATP luminescence (AID 2303);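 also: 0% = DMSO wells and 100% = digitonin-killed cells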
Experimental Context: HepG2 viability, 24-48 h, at 10 µM
Active and inactive are the calls of the source.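 Rule for the calls: active = inhibition above 50%; inactive = the rest.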
# valid calls are active, inactive; nothing else

Field: example entries. Status: answers known.
CN(C)Cc1ccc(-c2cc3c(Nc4ccc(OCc5cccc(F)c5)c(Cl)c4)ncnc3s2)[nH]1 | inactive
CC(C(=O)N1CCCC1)N1CCN(C(c2ccccc2)c2ccccc2)CC1 (configuration not stated) | inactive
CCc1cn2c3c(cc(C(=O)N[C@@H](Cc4ccccc4)[C@H](O)CNC4CCOCC4)cc13)N(C)S(=O)(=O)C2 | inactive
Cc1cc(OCCCN2CCN(CCN3CCOCC3)CC2)ccc1NC(=O)COc1ccc(Cl)cc1C(=O)c1cc(Cl)cc(C#N)c1 | inactive

Give the logged outcome of this assay for the following compound: CCn1c(-c2nonc2N)nc2c(-c3cccc(NC(=O)Nc4cccc(C#N)c4)c3)ncc(OCCCN)c21
inactive

---

Test system: R275C
Run Description: modulators of BK channel variants, profiling panel, selectivity assay, cell-based, U2OS BacMam, thallium flux, beta subunits (AID 1259406);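 also: initial slope of Thallos dye fluorescence rise after thallium is added; log ratio against the mean of 0.3% DMSO vehicle wells on the same plate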
Experimental Context: at 30 µM
Param threshold (-0.01) applies to log fold change Tl+ flux; output t when value >= threshold, f when value < threshold.

Field: example entries. Status: answers known.
COC(=O)CC1(C(=O)OC)Oc2ccc(Br)cc2C(=O)N1c1cccc(Cl)c1Cl (centres undefined) | f
O=C(NCc1ccc2c(c1)OCO2)C1CCN(C(=O)OCc2ccccc2)CC1 | t
CO[C@H]1/C=C/O[C@@]2(C)Oc3c(C)c(O)c4c(O)c(c(C=NN5CCN(C)CC5)c(O)c4c3C2=O)NC(=O)/C(C)=C\C=C\[C@H](C)[C@H](O)[C@@H](C)[C@@H](O)[C@@H](C)[C@H](OC(C)=O)[C@@H]1C | f
CCOC(=O)C(C#N)=CNc1ccccc1OC(F)(F)F | f
COc1ccc(CNCc2cc(OC)c(OC)c(OC)c2)cc1 | f

Exam item: decide whether the reported log fold change Tl+ flux for CCCCCCCCCCCC(=O)N1CC(=O)NC(=O)C1 is at least -0.01.
f

What about CCOC(=O)c1cc(NC(=O)CC(C)(C)CC(=O)O)ccc1N1CCCCC1 ?
t

What about O=C(Nc1csc(Cc2c(Cl)cccc2Cl)n1)NN1CCOCC1 ?
f

What about FC(F)(F)c1ccc(-c2csc(C3(c4ccc(Cl)cc4Cl)CC3)n2)cc1 ?
t

---

As shown below, each of these molecules has a reported inhibition value.
Subject Of Test: L-lactate dehydrogenase (Plasmodium falciparum (isolate CDC / Honduras))
Run Description: PfLDH activity inhibition – cell lysate, 3D7 strain, counter-screen for P. falciparum growth inhibition project (AID 2304);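 also: 0% = vehicle and 100% = reference inhibitor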
Experimental Context: P. falciparum 3D7 crude extract, LDH APAD/NBT absorbance; at 2 µM; stronger effect = higher value
Express it in %; write the number only.

Use these answered entries as a reference point.
Cc1ccc(C2CCN(CCCCNC(=O)c3ccc(NC(=O)c4ccc(Cl)cc4)cc3)CC2)c(OCC(F)(F)F)c1 | -4
Cc1cccc(Nc2nc(N[C@@H]3CCCNC3)nc3cc[nH]c(=O)c23)c1 | 1
c1ccc(Oc2ccc(Nc3ccnc4cc(-c5cccc(CNCCN6CCOCC6)c5)ccc34)cc2)cc1 | 7
Cc1ccc(CN2CCCN(Cc3cccc(NC(=O)c4ccc(-c5ccccc5)cc4)c3)CC2)cc1C | -4
CC(C)(Oc1c(C2CCN(CCCCNC(=O)c3ccc(-c4ccc(Cl)cc4)cc3)CC2)ccc2c1CCCC2)C(N)=O | 1

Return inhibition measured with L-lactate dehydrogenase (Plasmodium falciparum (isolate CDC / Honduras)) given this molecule: Fc1ccc2nc(-c3ccc(-c4ccc(CNCCN5CCNCC5)cc4)s3)[nH]c2c1
-1

What about CC(CC1CCCCC1)NCc1ccccc1OCCC(=O)N1CCCC1C(N)=O (configuration not stated) ?
8

What about O=C(N[C@H]1CCN(Cc2ccc(OCCN3CCNCC3)c(Cl)c2)C1)c1ccc(Cl)c(Cl)c1 ?
-1
